- Test system: Human Cartilage explants, IL-1β-induced nitric oxide synthase (nitrite production)
- Procedure Details: Human cartilage explant assay (nitrite production, IL-1β induced)
- Assay type: cell-based
- Test Conditions: Homo sapiens; inhibition of nitrite production, IL-1β stimulated explants
Structures can show the parent of a compound that is named as a salt.
A collection of molecules and their measured log10(IC50)
Property Label: log10(IC50) (log10 of the value in µM)

{"Molecule": "CC(=N)NC/C=C\\CC[C@](C)(N)C(=O)O.Cl.Cl [Example LL, dihydrochloride]", "Meas Value": -0.10}
{"Molecule": "CC(=N)NC/C(F)=C\\CC[C@](C)(N)C(=O)O.Cl.Cl [Example HH, dihydrochloride]", "Meas Value": -0.40}
{"Molecule": "CC(=N)NC/C(F)=C/CC[C@H](N)C(=O)O [Example D, trihydrochloride, dihydrate]", "Meas Value": 0.40}
{"Molecule": "CC(=N)NCC(F)=CCC[C@H](N)C(=O)O (mixture of isomers) [Example B, dihydrochloride]", "Meas Value": -0.70}
{"Molecule": "CC(=N)NC/C(F)=C\\CC[C@H](N)C(=O)O [Example A, dihydrochloride, monohydrate]", "Meas Value": -1.00}

---

Measured pIC50 by item
- Tested on: Human Cartilage explants, IL-1β-induced nitric oxide synthase (nitrite production)
- Procedure Details: Human cartilage explant assay (nitrite production, IL-1β induced)
- Type: cell-based
- Test Conditions: Homo sapiens; inhibition of nitrite production, IL-1β stimulated explants
pIC50: −log10 of the molar value. Counter-ions that a name gives are not always drawn.

{"Compound": "N=C1CCCC[C@@H](CCCC[C@H](N)C(=O)O)N1 [Example W, trihydrate hydrochloride]", "Target Or Test System": "Human Cartilage explants, IL-1β-induced nitric oxide synthase (nitrite production)", "pIC50": "< 4.52"}
{"Compound": "N=C1CCCC[C@H](CCCC[C@@H](N)C(=O)O)N1 [Example V, trihydrate hydrochloride]", "Target Or Test System": "Human Cartilage explants, IL-1β-induced nitric oxide synthase (nitrite production)", "pIC50": "> 5.00"}
{"Compound": "N=C1CCCC[C@H](CCCC[C@H](N)C(=O)O)N1 [Example X, trihydrate hydrochloride]", "Target Or Test System": "Human Cartilage explants, IL-1β-induced nitric oxide synthase (nitrite production)", "pIC50": "> 5.00"}

The values you see were collected from patent US20030119826A1.
